Value source: patent US5219884A

experiment: in vitro; assay type: cell-based, human; conditions: human, katoiii cells, 1.0 μg/ml; read-out: Suppression
Measured metric: cytotoxicity at 72 h (%)
Write the answer as a number in %, unit excluded.

Tell us which cytotoxicity at 72 h value is on record for CCCCCCC(=O)CCCCCC/C=C/CC1OC(=O)C(N)(CO)C1O (stereo not shown) [Example 4]
6.7

----------
experiment: in vitro; assay type: cell-based, human; details: human, pc-14 cells, 0.1 μg/ml; read-out: Suppression
cytotoxicity at 72 h under 6% gets rule met, anything at or over 6% gets rule not met.

Check if cytotoxicity at 72 h falls below 6% for CCCCCCC(O)CCCCCCCCCC1OC(=O)C(N)(CO)C1O (centres unmarked) [Example 10] .
rule not met

cytotoxicity at 72 h under 6%? Item: CCCCCCC(O)CCCCCCCCCC(O)C(O)C(N)(CO)C(=O)O (centres unmarked) [Example 9]
rule not met

# TODO verify cytotoxicity at 72 h < 6% strictly for this compound: CCCCCCC(=O)CCCCCCCCCC(O)C(O)C(N)(CO)C(=O)O (centres unmarked) [Example 5]
rule not met

Say whether its cytotoxicity at 72 h is strictly beneath 6%. Entry: CCCCCCC(=O)CCCCCC/C=C/CC1OC(=O)C(N)(CO)C1O (centres unmarked) [Example 4]
rule met

# TODO verify cytotoxicity at 72 h < 6% strictly for this compound: CCCCCCC(=O)CCCCCC/C=C/CC1OC(=O)C(CO)(NC(C)=O)C1O (centres unmarked) [Example 11]
rule not met

State whether 6% exceeds cytotoxicity at 72 h recorded for CCCCCCC(O)CCCCCC/C=C/CC(O)C(O)C(N)(CO)C(=O)O (centres unmarked) [Example 6] .
rule not met

Lab note: confirm whether the reported cytotoxicity at 72 h for this compound is below 6%, equality not counting. compound: CCCCCCC(O)CCCCCC/C=C/CC1OC(=O)C(N)(CO)C1O (centres unmarked) [Example 8]
rule met
